Values were extracted from patent US20150158934A1.

targetDesc: gp140CN54 (subtype B'/C), gp140 envelope glycoprotein from the HIV-1 group M CRF07-B/C-clade isolate 97CN54 (HIV-1)
protocolText: binding of purified VHH to gp140 CN54 (method not given)
Returns: string. Value is T if measured K50 (50% binding concentration; column head reads KD) is below 9 µg/mL, and F if it is greater than or equal to it.

Would you please look over these solved cases?
INSERT INTO measurements (binder, assignedcategory) VALUES
  ('L8Cj3 Mutant 9 (VHH) VHH: EVQLVESGGGLVQAGGFLRLSCELRGSIFNQYAMAWFRQAPGKEREFVAGMGAVPHYGEFVKGRFTISRDNAKSTVYLQMSSLKPEDTAIYFCARSKSTYISYASNGYDYWGRGTQVTVSS', 'T'),
  ('L8i5 (VHH) VHH: EVQLVESGGGLVQAGGFLRLSCEPRGSIFNQYAMAWFRQAPGKEREFVAGMGAVAHYGEFVKGRFTISRDNAKNTAYLQMNSLKPEDTAIYFCARSKSTYISYNSNGYDYWGRGTQVTVSS', 'T'),
  ('L8Cj3 Mutant 10 (VHH) VHH: EVQLVESGGGLVQAGGFLRLSCELRGSIFNQYAMAWFRQAPGKEREFVAGMGAVPHYGEFVKGRFTISRDNAKSTVYLQMSSLKPEDTAIYFCARSKSTYISYNSNEYDYWGRGTQVTVSS', 'F'),
  ('L8Cj3 Mutant 4 (VHH) VHH: EVQLVESGGGLVQAGGFLRLSCELRGSIFNQYAMAWFRQAPGKEREFVAGMGAVPHYADSVKGRFTISRDNAKSTVYLQMSSLKPEDTAIYFCARSKSTYISYNSNGYDYWGRGTQVTVSS', 'T');

INPUT: Given L8Cj3 Mutant 1 (VHH) VHH: EVQLVESGGGLVQAGGFLRLSCAASGSIFNQYAMAWFRQAPGKEREFVAGMGAVPHYGEFVKGRFTISRDNAKSTVYLQMSSLKPEDTAIYFCARSKSTYISYNSNGYDYWGRGTQVTVSS , is recorded K50 (50% binding concentration; column head reads KD) strictly lower than 9 µg/mL?
OUTPUT: F
